system: Plasmodium berghei; assay: Causal prophylactic activity on OF1 mice infected with Plasmodium berghei; assay type: in vivo, P. berghei (ANKA), in Swiss OF1 mice; conditions: Plasmodium berghei, iv, 3 h; single i.v. three hours after sporozoites; mg PQ diphosphate equivalent/kg; read-out: ED100, totally curative dose
Exercise: for every item that follows, state its recorded ED100.
Give bare numbers, in mg/kg.

compound | readout unit | ED100
COc1cc(NC(C)CCCNC(=O)C[C@H](N)C(=O)O)c2ncccc2c1 (stereo partly shown) | mg/kg | 31
COc1cc(NC(C)CCCNC(=O)[C@@H](N)CC(=O)O)c2ncccc2c1 (stereo partly shown) | mg/kg | 31
COc1cc(NC(C)CCCNC(=O)CC[C@H](N)C(=O)O)c2ncccc2c1 (stereo partly shown) | mg/kg | 24

Alright, here's another compound for you.
Lab book: ED100 of COc1cc(NC(C)CCCNC(=O)[C@@H]2CCC(=O)N2)c2ncccc2c1 (stereo partly shown) noted as 22
